Molecular target: human mTOR (Homo sapiens (Human), UniProt P42345)
Sequence (P42345 1360-2549): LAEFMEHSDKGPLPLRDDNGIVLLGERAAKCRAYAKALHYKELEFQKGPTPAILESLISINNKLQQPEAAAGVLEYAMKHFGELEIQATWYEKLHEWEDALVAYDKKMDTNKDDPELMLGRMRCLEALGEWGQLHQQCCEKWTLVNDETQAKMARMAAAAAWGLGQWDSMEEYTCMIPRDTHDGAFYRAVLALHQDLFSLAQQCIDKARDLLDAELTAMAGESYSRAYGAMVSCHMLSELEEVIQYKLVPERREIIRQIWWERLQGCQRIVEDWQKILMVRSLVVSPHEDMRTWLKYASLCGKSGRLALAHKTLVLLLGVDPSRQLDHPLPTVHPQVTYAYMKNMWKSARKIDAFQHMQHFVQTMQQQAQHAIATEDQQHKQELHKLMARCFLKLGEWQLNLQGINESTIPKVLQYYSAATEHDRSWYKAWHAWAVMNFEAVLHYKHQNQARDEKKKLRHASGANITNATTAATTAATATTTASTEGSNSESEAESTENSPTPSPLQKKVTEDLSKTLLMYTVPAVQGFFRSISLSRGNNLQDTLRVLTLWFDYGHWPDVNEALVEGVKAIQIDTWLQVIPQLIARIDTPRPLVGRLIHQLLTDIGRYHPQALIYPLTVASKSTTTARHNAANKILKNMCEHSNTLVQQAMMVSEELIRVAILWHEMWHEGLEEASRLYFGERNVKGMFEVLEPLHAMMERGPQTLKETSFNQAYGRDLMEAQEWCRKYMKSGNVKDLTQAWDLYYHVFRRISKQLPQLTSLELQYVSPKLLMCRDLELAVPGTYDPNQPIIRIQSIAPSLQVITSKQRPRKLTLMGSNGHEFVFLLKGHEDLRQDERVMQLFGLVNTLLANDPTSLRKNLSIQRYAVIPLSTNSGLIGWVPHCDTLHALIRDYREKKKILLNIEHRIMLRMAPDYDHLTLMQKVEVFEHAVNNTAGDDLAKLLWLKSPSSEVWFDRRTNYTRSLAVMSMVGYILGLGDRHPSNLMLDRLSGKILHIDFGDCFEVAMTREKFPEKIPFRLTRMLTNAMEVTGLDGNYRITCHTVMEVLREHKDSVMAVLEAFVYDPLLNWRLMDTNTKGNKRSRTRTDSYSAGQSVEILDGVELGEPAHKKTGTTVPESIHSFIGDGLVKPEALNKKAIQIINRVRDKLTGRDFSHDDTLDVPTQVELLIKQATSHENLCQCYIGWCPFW
Test: mTOR kinase assay (TR-FRET, for comparative purposes)
Format: biochemical
Details: read-out: mTOR % inhibition @ 1 μM; 1 μM test compound; mean inhibition values
Source text: mTOR inhibitory activity of the compounds of the present invention was quantified employing the TR-FRET based mTOR assay as described in the following paragraphs: Recombinant fusion tagged mTOR protein [glutathione-S-transferase (GST) fused to human mTOR amino acids from 1360 to 2549], expressed in insect cells and purified by glutathione-sepharose affinity chromatography, was purchased from Invitrogen (Cat.-No. 4753) and used as enzyme. […]
inhibition at 1 µM below 7% gives no; inhibition at 1 µM at or above it gives yes.

INSERT INTO results (compound, answer_label) VALUES
  ('CCOCc1cn2ncnc(N)c2c1-c1cc2cc(C)cc(OC)c2s1 [Example 28]', 'yes'),
  ('COc1cc(C)cc2cc(-c3c(COC[C@H](C)O)cn4ncnc(N)c34)sc12 [Example 2]', 'no'),
  ('COc1cc(Cl)cc2cc(-c3c(CN4CCNC(=O)C4)cn4ncnc(N)c34)sc12 [Example 31]', 'yes'),
  ('COc1cc(C)cc2cc(-c3c(CN(C)CC(N)=O)cn4ncnc(N)c34)sc12 [Example 14]', 'no'),
  ('CNC(=O)CNCc1cn2ncnc(N)c2c1-c1cc2cc(C)cc(OC)c2s1 [Example 13]', 'no');

* * *

Counter-ions that a name gives are not always drawn.
Each entry below carries its measured log10 of IC50, system: UniProt P22607.
Sequence (P22607 397-806): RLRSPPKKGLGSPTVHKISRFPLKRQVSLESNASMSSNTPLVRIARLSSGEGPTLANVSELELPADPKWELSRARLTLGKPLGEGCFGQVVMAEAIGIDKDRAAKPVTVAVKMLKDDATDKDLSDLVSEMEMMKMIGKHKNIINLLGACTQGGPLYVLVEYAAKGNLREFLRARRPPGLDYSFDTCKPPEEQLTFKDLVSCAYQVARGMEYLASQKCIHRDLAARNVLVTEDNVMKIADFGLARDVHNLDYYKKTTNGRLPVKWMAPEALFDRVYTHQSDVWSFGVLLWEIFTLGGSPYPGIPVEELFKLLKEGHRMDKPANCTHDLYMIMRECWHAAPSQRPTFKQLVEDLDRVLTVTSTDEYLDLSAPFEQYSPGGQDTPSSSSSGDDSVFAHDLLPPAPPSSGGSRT
Observable: log10 of IC50 (log10 of the value in nM)

INSERT INTO assay_data (compound, target_of_assay, reported_result) VALUES
  ('COc1cc(C)cc2cc(-c3c(CN4CCN(C5CC5)CC4)cn4ncnc(N)c34)sc12', 'UniProt P22607', 0.79),
  ('COc1cc(C)cc2cc(-c3c(CN4CCN(C(=O)OC(C)(C)C)CC4)cn4ncnc(N)c34)sc12 [Example 22, trifluoroacetate]', 'UniProt P22607', 1.03),
  ('COc1cc(C)cc2cc(-c3c(COCCCO)cn4ncnc(N)c34)sc12 [Example 1, hydrochloride]', 'UniProt P22607', 1.26),
  ('COc1cc(C)cc2cc(-c3c(COCCN)cn4ncnc(N)c34)sc12 [Example 8, dihydrochloride]', 'UniProt P22607', -0.70),
  ('COc1cc(C)cc2cc(-c3c(CN4CCCOCC4)cn4ncnc(N)c34)sc12', 'UniProt P22607', 0.36),
  ('CNC(=O)CNCc1cn2ncnc(N)c2c1-c1cc2cc(C)cc(OC)c2s1', 'UniProt P22607', 1.18),
  ('COc1cc(C)cc2cc(-c3c(CN4CC[C@H](N(C)C)C4)cn4ncnc(N)c34)sc12', 'UniProt P22607', -0.30),
  ('COc1cc(C)cc2cc(-c3c(CNCC(N)=O)cn4ncnc(N)c34)sc12', 'UniProt P22607', 0.36),
  ('COc1cc(C)cc2cc(-c3c(CN4CCNCC4)cn4ncnc(N)c34)sc12 [Example 25, trihydrochloride]', 'UniProt P22607', -0.40),
  ('COc1cc(C)cc2cc(-c3c(CNCCNC(C)=O)cn4ncnc(N)c34)sc12 [Example 24, trifluoroacetate]', 'UniProt P22607', 0.94),
  ('COc1cc(C)cc2cc(-c3c(COCCN4CCCCC4)cn4ncnc(N)c34)sc12', 'UniProt P22607', 0.97),
  ('COc1cc(C)cc2cc(-c3c(CN4CCCC(OC)C4)cn4ncnc(N)c34)sc12 (stereo not shown)', 'UniProt P22607', 0.41),
  ('COc1cc(C)cc2cc(-c3c(CN4CCC(C(N)=O)CC4)cn4ncnc(N)c34)sc12', 'UniProt P22607', 0.04),
  ('COc1cc(C)cc2cc(-c3c(COCCO)cn4ncnc(N)c34)sc12 [Example 7, hydrochloride]', 'UniProt P22607', 0.76),
  ('CCOC(=O)CNCc1cn2ncnc(N)c2c1-c1cc2cc(C)cc(OC)c2s1 [Example 15, dihydrochloride]', 'UniProt P22607', 1.94),
  ('COc1cc(C)cc2cc(-c3c(CN4CCNC(=O)C4C)cn4ncnc(N)c34)sc12 (stereo not shown)', 'UniProt P22607', 0.15);

Cited source for all entries: patent US9598416B2
